Reference source: patent US20210147541A1

Could you please report measured Mean fluorescence intensity ratio for the items listed next?
Target: T1, human CADM3 (human, UniProt Q8N126 25-398)
T1 construct: Full-length gene expressed transiently on Expi293F cells; also called cell adhesion molecule 3; human CADM3/Expi293F cells
T1 sequence: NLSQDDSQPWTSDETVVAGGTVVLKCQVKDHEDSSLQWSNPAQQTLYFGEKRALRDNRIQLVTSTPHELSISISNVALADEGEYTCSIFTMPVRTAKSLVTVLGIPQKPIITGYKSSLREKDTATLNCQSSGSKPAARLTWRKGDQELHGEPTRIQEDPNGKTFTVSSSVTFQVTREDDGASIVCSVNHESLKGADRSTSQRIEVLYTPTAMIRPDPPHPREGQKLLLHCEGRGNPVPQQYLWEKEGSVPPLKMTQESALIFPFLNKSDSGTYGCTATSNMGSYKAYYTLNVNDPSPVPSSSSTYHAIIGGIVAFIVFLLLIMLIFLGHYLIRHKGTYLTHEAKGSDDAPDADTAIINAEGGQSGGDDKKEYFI
Assay: flow cytometry, 10 ug/mL, human CADM3/Expi293F vs parent Expi293F cells
Numbers only.

[
  {
    "BINDER": "iCADM3_3R1-L11_02 VHH-hG4PE(R409K) (Fc fusion, also called iCADM3-3R1-L11_02 humanized antibody; not shown: Hinge-CH2-CH3 region of the human IgG4 heavy chain constant region (IgG4 variant)) EVQLVESGGGLIQPGGSLRLSCAASGSTVSFNAMGWYRQAPGKGRVLVAVITSGGYTNYADSVKGRFTISRDNSKNTVYLQMNSLRAEDTAVYYCNAEGVYSDYVIMNYWGQGTLVTVSS",
    "NUMERIC VALUE": 12.4
  },
  {
    "BINDER": "iCADM3_3R1-L11_04 VHH-hG4PE(R409K) (Fc fusion, also called iCADM3-3R1-L11_04 humanized antibody; not shown: Hinge-CH2-CH3 region of the human IgG4 heavy chain constant region (IgG4 variant)) EVQLVESGGGLIQAGGSLRLSCAASGSIVSFNAMGWYRQAPGKQRGLVAVITSGGYTNYADSVKGRFTISRDNSKNTLFLQMNSLRAEDTAVYYCNAEGVYSDYVIMNYWGQGTLVTVSS",
    "NUMERIC VALUE": 22.5
  },
  {
    "BINDER": "iCADM3_3R1-L8_04 VHH-hG4PE(R409K) (Fc fusion, also called iCADM3-3R1-L8_04 humanized antibody; not shown: Hinge-CH2-CH3 region of the human IgG4 heavy chain constant region (IgG4 variant)) QVQLVESGGGLVQPGGSLRLSCAASGRTFSNYARGWFRQAPGKEREFVAAIDYSGGSTNYADSAKGRFTISRDNSKNTVYLQMNSLRAEDTAVYYCAAPASRRPSWDADGYDYWGQGTLVTVSS",
    "NUMERIC VALUE": 6.2
  },
  {
    "BINDER": "iCADM3_3R1-L11_06 VHH-hG4PE(R409K) (Fc fusion, also called iCADM3-3R1-L11_06 humanized antibody; not shown: Hinge-CH2-CH3 region of the human IgG4 heavy chain constant region (IgG4 variant)) QVQLVESGGGLVQAGGSLRLSCAASGSIFSFNAMGWYRQAPGKQRGLVAVITSGGYTNYADSVKGRFTISRDNSKNTVFLQMNSLRAEDTAVYYCNAEGVYSDYVIMNYWGQGTLVTVSS",
    "NUMERIC VALUE": 33
  },
  {
    "BINDER": "iCADM3_3R1-L11_01 VHH-hG4PE(R409K) (Fc fusion, also called iCADM3-3R1-L11_01 humanized antibody; not shown: Hinge-CH2-CH3 region of the human IgG4 heavy chain constant region (IgG4 variant)) EVQLVESGGGLIQPGGSLRLSCAASGSTVSFNAMGWYRQAPGKGLGLVAVITSGGYTNYADSVKGRFTISRDNSKNTLFLQMNSLRAEDTAVYYCNAEGVYSDYVIMNYWGQGTLVTVSS",
    "NUMERIC VALUE": 12.2
  }
]

Now look at this entry.
Q) Provide measured Mean fluorescence intensity ratio value, entry: iCADM3_3R1-L8_01 VHH-hG4PE(R409K) (Fc fusion, also called iCADM3-3R1-L8_01 humanized antibody; not shown: Hinge-CH2-CH3 region of the human IgG4 heavy chain constant region (IgG4 variant)) QVQLVQSGGGLVQPGGSLRLSCAASGRTFSNYARGWFRQAPGKGREFVAAIDYSGGSTNYADSAKGRFTISRDNSKNTLYLQMNSLRAEDTAVYYCAAPASRRPSWDADGYDYWGQGTLVTVSS
A) 2.21
